B1: APC/C activator protein CDH1 (Saccharomyces cerevisiae), P53197 (parent)
chain: MSTNLNPFMNNTPSSSPLKGSESKRVSKRPISSSSSASLLSSPSRRSRPSTVYGDRYIPSRTDIDFNSIVSISSMASVPALNPSSTEDQVEYQKERQAHETYNTLLKNELFGEMLSKDTVGSESSIDRIKNTRPSTRGNVHAENTTRHGYELERVSTPPPEAAGLEEFSPHSTPVTPRRLFTSQQDEITRPSSNSVRGASLLTYQQRKGRRLSAASLLQSQFFDSMSPVRPDSKQLLLSPGKQFRQIAKVPYRVLDAPSLADDFYYSLIDWSSTDVLAVALGKSIFLTDNNTGDVVHLCDTENEYTSLSWIGAGSHLAVGQANGLVEIYDVMKRKCIRTLSGHIDRVACLSWNNHVLTSGSRDHRILHRDVRMPDPFFETIESHTQEVCGLKWNVADNKLASGGNDNVVHVYEGTSKSPILTFDEHKAAVKAMAWSPHKRGVLATGGGTADRRLKIWNVNTSIKMSDIDSGSQICNMVWSKNTNELVTSHGYSKYNLTLWDCNSMDPIAILKGHSFRVLHLTLSNDGTTVVSGAGDETLRYWKLFDKPKAKVQPNSLIFDAFNQIR

# Variants of: B1
# Test Settings: with hsl1_yeast HSL1, P34244
# Sequence (P34244 whole entry): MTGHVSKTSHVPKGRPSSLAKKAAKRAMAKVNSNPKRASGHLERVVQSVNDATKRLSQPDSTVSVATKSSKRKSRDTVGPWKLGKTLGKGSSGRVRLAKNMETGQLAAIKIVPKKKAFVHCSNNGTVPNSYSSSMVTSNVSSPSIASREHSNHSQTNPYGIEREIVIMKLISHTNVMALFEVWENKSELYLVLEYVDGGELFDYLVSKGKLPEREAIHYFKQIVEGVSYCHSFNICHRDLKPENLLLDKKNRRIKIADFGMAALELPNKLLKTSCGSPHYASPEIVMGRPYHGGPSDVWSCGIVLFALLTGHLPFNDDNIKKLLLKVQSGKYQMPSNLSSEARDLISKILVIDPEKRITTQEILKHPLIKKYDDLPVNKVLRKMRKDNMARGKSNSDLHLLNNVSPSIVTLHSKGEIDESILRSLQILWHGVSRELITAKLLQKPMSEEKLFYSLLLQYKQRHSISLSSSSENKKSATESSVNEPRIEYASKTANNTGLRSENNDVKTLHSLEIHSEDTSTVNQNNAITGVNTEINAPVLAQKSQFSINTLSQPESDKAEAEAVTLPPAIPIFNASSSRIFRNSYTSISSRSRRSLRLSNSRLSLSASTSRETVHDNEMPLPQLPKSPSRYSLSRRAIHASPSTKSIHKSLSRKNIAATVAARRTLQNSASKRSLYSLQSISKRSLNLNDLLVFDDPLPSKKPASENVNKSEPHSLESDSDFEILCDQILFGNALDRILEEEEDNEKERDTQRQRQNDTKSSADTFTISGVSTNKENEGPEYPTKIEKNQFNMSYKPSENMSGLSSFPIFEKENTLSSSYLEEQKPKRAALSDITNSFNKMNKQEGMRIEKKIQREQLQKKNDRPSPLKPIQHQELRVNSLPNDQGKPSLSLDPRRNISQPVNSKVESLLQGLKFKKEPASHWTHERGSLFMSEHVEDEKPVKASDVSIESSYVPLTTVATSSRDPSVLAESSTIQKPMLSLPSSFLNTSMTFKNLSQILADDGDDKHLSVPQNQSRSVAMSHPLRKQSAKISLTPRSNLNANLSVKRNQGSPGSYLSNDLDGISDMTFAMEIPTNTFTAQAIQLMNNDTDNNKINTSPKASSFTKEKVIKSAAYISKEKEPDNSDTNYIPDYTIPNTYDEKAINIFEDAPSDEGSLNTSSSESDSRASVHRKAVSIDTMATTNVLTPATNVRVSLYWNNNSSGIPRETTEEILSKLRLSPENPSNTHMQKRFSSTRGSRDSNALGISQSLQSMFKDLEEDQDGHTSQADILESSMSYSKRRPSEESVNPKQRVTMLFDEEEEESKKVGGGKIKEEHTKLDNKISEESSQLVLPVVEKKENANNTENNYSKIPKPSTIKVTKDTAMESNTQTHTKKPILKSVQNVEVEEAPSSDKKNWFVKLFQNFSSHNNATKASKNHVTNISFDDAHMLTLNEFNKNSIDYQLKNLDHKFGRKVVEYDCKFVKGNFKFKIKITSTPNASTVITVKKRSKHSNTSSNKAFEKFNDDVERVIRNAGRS
Measured Property: effect of a mutation on the interaction

P258A | disrupting interaction
G535A | disrupting interaction
L255V | disrupting interaction

From: IntAct's records for PubMed 21460798
